src = PubChem BioAssay (NCI)

Some compounds, each annotated with its measured GI50.
Tested on: OVCAR-8 ovarian
Assay: NCI tumour cell line growth inhibition, 48 h

Look over these answered cases.
compound=CC1=C(CNO)C2=C(C)C3(CC3)[C@@](C)(O)C(=O)C2=C1 experimental_result="2.28 µM"
compound=COc1cc2cc3c(c(O)c2c(O)c1-c1c(OC)cc2cc4c(c(O)c2c1O)C(=O)O[C@H](C)C4)C(=O)O[C@H](C)C3 experimental_result="33.5 µM"
compound=COc1cc(N(CCC#N)CCC#N)ccc1/C(N=Nc1ccc(C(=O)O)cc1)=N/NC(=O)c1cc(Br)ccc1O experimental_result="50.6 mg/L"
compound="NC(=O)c1ncn(C2OC(CO)C(O)C2O)c1N (stereo not given)" experimental_result="62.2 µM"

Query (compound): COc1ccc(OCC(O)CN2CCN(c3ccc(Cl)cc3)CC2)cc1 (stereo not given) ; field requested: GI50
88.5 µM

* * *

Tested on: HCT-15 colon
Assay: NCI tumour cell line growth inhibition, 48 h
REPORTED_ENDPOINT: TGI

molecule=C/C(Nc1ccc(Cl)cc1)=C1/CCOC1=O experimental_result="> 100 µM"
molecule=O=S(=O)(O)c1cc(O)c(N=Nc2ccc3ccccc3c2O)c2ccccc12 experimental_result="> 100 µM"
molecule=COC(=O)[C@@H]1COC(=O)N1 experimental_result="> 100 µM"
molecule="CCOC(=O)C1CCC(=O)N1C(=O)c1ccc(Cl)cc1 (centres undefined)" experimental_result="> 100 µM"
molecule=Cc1cc(C)n2c(nc3ccccc32)c1C#N experimental_result="> 100 µM"

What value of TGI has been reported for the following molecule? c1ccc(Nc2nnc(CCCCCCCCc3nnc(Nc4ccccc4)o3)o2)cc1
> 100 µM

Quick one: TGI of O=c1c2cc(I)ccc2nc(-c2cccs2)n1O ?
> 100 µM

Dear colleague, I am looking for the recorded TGI of the following molecule: CCC(=C/[C@H](C)C/C=C/C(C)=C/[C@@H](C)C(=O)[C@@H](C)[C@H](O)[C@@H](C)CC)/C=C/[C@H]1CC=CC(=O)O1
1.78 µM

Reported TGI for OCCCCC#Cc1ccccc1C#Cc1ccc(C(F)(F)F)cc1 : what is it?
25.4 µM

Record request: TGI value, item C/C(=N\NC(=S)N1CCOCC1)c1nc2ncccc2[nH]1
> 100 µM

For the molecule CCOC(=O)C1C(c2ccc(OC)cc2)c2c([nH]n(-c3ccccc3)c2=O)CC1(C)O (centres undefined) , what TGI is on record?
> 100 µM

Fill blank: measured TGI of the molecule COC1OC(C(=O)O)C2OC(C)(C)OC12 (centres undefined) is ____.
> 100 µM

Name the recorded TGI for CCCCCCCCCCCCC1N=C(N)NC2(CCCO2)C1C(=O)OC (centres undefined) .
42.9 µM

Param item = Nc1nc(=S)[nH]c(C(=O)Nc2nccs2)c1-c1ccccc1 ; retrieve measured TGI.
> 100 µM

Entry NC(=O)c1ncn(C2OC(CO)C(O)C2O)c1N (centres undefined) has what TGI?
> 100 µM

May I ask what TGI has been recorded for Cc1ccc(NC(=O)C(=O)Cc2cccc[n+]2[O-])cc1C ?
> 100 µM

Can you look up the measured TGI of N#CCC1(n2cc(-c3ncnc4[nH]ccc34)cn2)CN(C2CCN(C(=O)c3ccnc(C(F)(F)F)c3F)CC2)C1 for me?
> 100 µM

Which TGI value is on record for CCSc1ncc(Br)c(Sc2nc(N)nc3nc[nH]c23)n1 ?
> 100 µM

* * *

Tested on: KM12 colon
Assay: NCI tumour cell line growth inhibition, 48 h
REPORTED_ENDPOINT: TGI

Please review the following examples before continuing.
compound=Cc1nc(-n2nc(-c3ccccc3)cc2-c2ccccc2)sc1C(=O)/C=C/c1ccccc1 reported_endpoint=TGI experimental_result="> 100 µM"
compound=CC(=O)C(C(C)=O)[C@H]1OC(C)(C)O[C@H]1[C@H]1COC(C)(C)O1 reported_endpoint=TGI experimental_result="> 100 µM"

// query TGI value for entry CCCCCCCCCCCCCCC(C)CCC(=O)O (centres undefined)
> 100 µM

Using the record for O=C(Nc1ccc(C(F)(F)F)cc1[N+](=O)[O-])c1cccnc1 , report its TGI.
> 100 µM

Please report the recorded TGI for O=C(/C=C(\[O-])c1ccccc1)CCCCCCC(=O)/C=C(\[O-])c1ccccc1.O=C(/C=C(\[O-])c1ccccc1)CCCCCCC(=O)/C=C(\[O-])c1ccccc1.O=C(/C=C(\[O-])c1ccccc1)CCCCCCC(=O)/C=C(\[O-])c1ccccc1.[Nd+3].[Nd+3] .
> 50 µM

Quick one: TGI for NC(N)=N/N=C/c1c(-c2ccncc2)nc2sc(Cl)cn12 ?
10.8 µM

Need TGI of NC(N)=NCCCC(NC(=O)c1c2ccccc2nc2ccccc12)C(=O)O (centres undefined) , thanks.
> 100 µM

Reported TGI for O=C(N/N=C/c1ccc(F)cc1)c1ccc(C(F)(F)F)nc1Nc1cccc(C(F)(F)F)c1 : what is it?
3.76 µM

Fill in the blank: the reported TGI of O=C(c1ccccc1)c1cc(Cl)ccc1NCn1nnc2ccccc21 is ____.
> 100 µM

I am curious: what TGI value has been reported for COC(=O)c1ccc2[nH]c(O)c(C(=Nc3ccc(N(C)C(=O)CN4CCN(C)CC4)cc3)c3ccccc3)c2c1 ?
5.52 µM

Quick one: TGI of COC(=O)c1sc(=NC(=S)N2CCCCC2)sc1C(=O)OC ?
> 100 µM

Need TGI, item CC(C)=CCc1c2c(c(O)c3c(=O)c4c(oc13)-c1ccc(O)cc1OC4C=C(C)C)C=CC(C)(C)O2 (centres undefined)
21.7 µM

So what does the record say about TGI for COc1ccc(OCC(O)CN2CCN(c3ccc(Cl)cc3)CC2)cc1 (centres undefined) ?
> 100 µM

# query: TGI of entry CC(C)=CCCC1(C)C2COC(=O)C21 (centres undefined)
> 100 µM

* * *

System: KM12 colon
Assay: NCI tumour cell line growth inhibition, 48 h
# GI50 per record follows

Here's what some known entries look like.
compound=NC(N)=N/N=C/c1c(-c2ccc(Cl)c([N+](=O)[O-])c2)nc2sc3ccccc3n12 experimental_result="0.842 µM"
compound=N#CCC1(n2cc(-c3ncnc4[nH]ccc34)cn2)CN(C2CCN(C(=O)c3ccnc(C(F)(F)F)c3F)CC2)C1 experimental_result="36.1 µM"
compound=CCN1CCN(c2nc(NNC(=O)c3ccccc3)nc(N3CCN(C(c4ccccc4)c4ccccc4)CC3)n2)CC1 experimental_result="3.42 µM"
compound=Oc1ccccc1C=Nc1nc(OCc2ccccc2)nc2[nH]ncc12 experimental_result="20.4 µM"
compound="O=C(c1ccccc1)C(Br)C(Br)c1ccccc1 (stereo not given)" experimental_result="3.5 µM"
compound=c1cncc([O][Ge]([O]c2cccnc2)([O]c2cccnc2)[O]c2cccnc2)c1 experimental_result="> 100 µM"
compound=C=C(Cn1c2ccccc2c(=O)c2ccccc21)c1ccc(C(=O)Nc2ccccc2N)cc1 experimental_result="2.43 µM"
compound=COC(=O)c1ccc2[nH]c(O)c(C(=Nc3ccc(N(C)C(=O)CN4CCN(C)CC4)cc3)c3ccccc3)c2c1 experimental_result="0.0353 µM"

Record request: GI50 value, item CNCc1cccc2c1OCCOCCOCCC(C)S(=O)(=O)c1ccc(cc1)-c1cnc(N)c(n1)C(=O)N2 (stereo not given)
1.69 µM

# get_value(readout='GI50', item= COc1cccc(C2C(C#N)=C(N)Oc3cc4c(cc32)OCO4)c1 (stereo not given) )
0.0404 µM

Would you mind telling me what GI50 value was observed for C#CC#CC#CC#CC#CC#CC#CC#CC[C@@H]1OC[C@@H](COC(=O)O[C@@H](C(=O)O[C@H]2C[C@@]3(O)[C@@H](OC(=O)c4ccccc4)[C@@H]4[C@]5(OC(C)=O)CO[C@@H]5C[C@H](O)[C@@]4(C)C(=O)[C@H](OC(C)=O)C(=C2C)C3(C)C)[C@@H](NC(=O)c2ccccc2)c2ccccc2)O1 ?
0.191 µM

Given the entry Nc1ncc(C2[C@H](CNC(=O)c3cc(Br)c[nH]3)C(CNC(=O)c3cc(Br)c[nH]3)[C@@H]2c2cnc(N)[nH]2)[nH]1 (stereo not given in full) , report its measured GI50.
> 50 µM

Fill in: GI50 of N#CC(NC(=O)CCl)=C(Cl)Cl is ___
1.88 µM

Which GI50 is listed for CCCCC[C@@H](C/C=C/CCC(=O)NC/C(=C/Cl)[C@H]1C(=O)C(C)(C)C(=O)[C@@H](C)[C@@]1(C)O)OC ?
17.5 µM

Entry COc1ccc(Cc2nc3cc(OC)c(OC)cc3c(=O)[nH]2)cc1 : reported GI50 = ?
2.68 µM

* * *

System: NCI/ADR-RES ovarian
Assay: NCI tumour cell line growth inhibition, 48 h
REPORTED_ENDPOINT: GI50

molecule=CNCc1ccc(-c2[nH]c3cc(F)cc4c3c2CCNC4=O)cc1 experimental_result="69.2 µM"
molecule=C=CCN=C(N/N=C/c1ccc([N+](=O)[O-])o1)NS(=O)(=O)c1cc(C(=O)Nc2ccccc2)c(Cl)cc1SCC(N)=O experimental_result="> 100 µM"
molecule=C=C(Cn1c2ccccc2c(=O)c2ccccc21)c1ccc(C(=O)Nc2ccccc2N)cc1 experimental_result="2.31 µM"

Reported GI50 for C#Cc1cccc(NC(=O)C2CCCN(C(=O)CCl)C2)c1 (stereo unspecified) : what is it?
> 82.5 µM

GI50 for Fc1ccc(-c2nn3c(COc4ccc(Cl)cc4)nnc3s2)cc1Oc1ccccc1 ?
30.5 µM

Give its GI50 value. Item: COc1cc2c(cc1OCCCOc1ccc(-c3cc4ccccc4c4ccccc34)cc1)N=C[C@@H]1CCCN1C2=O
0.716 µM
